ASSAY SYSTEM: T1, Peptide-40 (cysteine pairing not given here; also: biotinylated, site not given here)
T1 peptide: VDFCYLYSWPICTK
TEST DETAILS: ELISA, Fab on captured biotin-peptide
Where no end group is shown, it is not given here.
PROPERTY: EC50 (nM)
Record the value in nM, omitting the unit from your answer.

Use the examples below as a reference point.
TBD-17 (HC S104A) (Fab, V domains shown, Fab; also called HC S104A mutant) VH: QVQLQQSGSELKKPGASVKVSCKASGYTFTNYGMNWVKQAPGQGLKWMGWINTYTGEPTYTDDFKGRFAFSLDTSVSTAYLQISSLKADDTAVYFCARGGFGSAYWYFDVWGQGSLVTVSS VL: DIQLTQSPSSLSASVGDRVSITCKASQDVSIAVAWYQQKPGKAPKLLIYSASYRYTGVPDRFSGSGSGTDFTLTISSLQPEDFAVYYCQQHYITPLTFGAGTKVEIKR; 27
TBD-21 (HC F108A) (Fab, V domains shown, Fab; also called HC F108A mutant) VH: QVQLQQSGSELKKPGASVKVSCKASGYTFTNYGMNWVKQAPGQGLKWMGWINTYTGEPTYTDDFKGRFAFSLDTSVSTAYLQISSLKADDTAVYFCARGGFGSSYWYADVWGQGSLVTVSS VL: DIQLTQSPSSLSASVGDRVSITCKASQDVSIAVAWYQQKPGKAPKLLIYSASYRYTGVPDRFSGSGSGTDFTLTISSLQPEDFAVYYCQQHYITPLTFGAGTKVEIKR; 45.8
TBD-22 (HC D109A) (Fab, V domains shown, Fab; also called HC D109A mutant) VH: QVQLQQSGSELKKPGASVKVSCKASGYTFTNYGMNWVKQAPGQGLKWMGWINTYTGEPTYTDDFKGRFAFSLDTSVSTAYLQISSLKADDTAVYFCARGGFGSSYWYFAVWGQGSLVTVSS VL: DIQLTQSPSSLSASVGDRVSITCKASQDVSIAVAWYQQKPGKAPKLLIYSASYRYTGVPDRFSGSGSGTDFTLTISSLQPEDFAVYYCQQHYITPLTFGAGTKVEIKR; 4.6

Moving on to the next binder.
Give the measured EC50 of TBD-6 (LC I93A) (Fab, V domains shown, Fab; also called LC I93A mutant) VH: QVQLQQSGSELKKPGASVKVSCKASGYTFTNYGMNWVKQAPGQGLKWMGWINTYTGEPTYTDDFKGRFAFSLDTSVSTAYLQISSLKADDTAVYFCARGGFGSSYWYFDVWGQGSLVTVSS VL: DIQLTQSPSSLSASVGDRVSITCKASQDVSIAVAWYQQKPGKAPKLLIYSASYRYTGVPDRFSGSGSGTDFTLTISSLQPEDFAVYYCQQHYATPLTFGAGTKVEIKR . 30.4
